Protocol Notes: A CellTox Green Cytotoxicity Assay to monitor cytotoxicity in HEK293 cells - 0 hour (AID 1224869); also: nearly all actives have a fitted effect of over 50% in size; also: potency is read from the fitted curve at half-maximal effect
Study Conditions: CellTox Green fluorescence; series mostly up to 76.8 µM
Active and inactive are the calls of the source. Calls follow the shape of the dose curve; as a rule, active = well fitted activation curve with a large enough effect in the repeat runs; inconclusive = weak or mixed curves; inactive = flat fitted curve, though single readings scatter.
Metric: Potency

Study these solved cases before continuing.
Lookup: For the compound `CC1=C2C[C@H]3[C@@H](CC=C4C[C@@H](O)CC[C@@]43C)[C@@H]2CC[C@]12O[C@@H]1C[C@H](C)CN[C@H]1[C@H]2C` , what Potency is on record?
Found: inactive

Lookup: Again, but for `CSC(=O)c1c(C(F)F)nc(C(F)(F)F)c(C(=O)SC)c1CC(C)C`
Found: inactive

Lookup: Cool, now CC(Cc1ccc2c(c1)OCO2)NO (configuration not stated)
Found: inactive

Lookup: Also check `CC(=O)[O][Pb]([c]1ccccc1)([c]1ccccc1)[c]1ccccc1`
Found: inactive

Lookup: Would you kindly repeat that for `COC(=O)N(OC)c1ccccc1COc1ccn(-c2ccc(Cl)cc2)n1` ?
Found: inactive

Lookup: Query `N#CCCl` next
Found: inactive

Lookup: Proceed to `CSSC`
Found: inactive

Lookup: Lookup `O=[N+]([O-])c1cccc2cccc([N+](=O)[O-])c12`
Found: inactive

Lookup: // repeat for `CCCCN(CCCC)C(=S)[S-].CCCCN(CCCC)C(=S)[S-].[Ni+2]` and report
Found: inactive

Lookup: And for `Nc1cc(Cl)ccc1Cl` ?
Found: inactive

More entries:
Lookup: What value of Potency has been reported for the following compound? `CCC[CH2][Sn]([CH2]CCC)([CH2]CCC)[CH2]CCC`
Found: 49 µM (active)

Lookup: Next compound: `Cc1ccc([N+](=O)[O-])[c]2c1[O][Hg]2`
Found: inactive

====

Assay System: Thyrotropin-releasing hormone receptor (Homo sapiens) (UniProt P34981)
Sequence (P34981 whole entry, looked up): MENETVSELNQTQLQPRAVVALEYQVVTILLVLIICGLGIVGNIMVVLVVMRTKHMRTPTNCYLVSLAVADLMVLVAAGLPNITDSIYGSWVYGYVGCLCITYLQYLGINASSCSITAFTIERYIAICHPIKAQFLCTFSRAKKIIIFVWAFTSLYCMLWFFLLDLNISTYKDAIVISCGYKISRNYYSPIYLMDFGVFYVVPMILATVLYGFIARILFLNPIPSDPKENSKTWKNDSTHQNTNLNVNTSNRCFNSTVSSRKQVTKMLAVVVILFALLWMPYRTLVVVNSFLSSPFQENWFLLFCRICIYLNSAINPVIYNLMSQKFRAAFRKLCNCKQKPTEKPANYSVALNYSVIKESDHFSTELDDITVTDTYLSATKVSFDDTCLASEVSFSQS
Protocol Notes: qHTS assay to identify small molecule antagonists of the thyrotropin-releasing hormone receptor (TRHR) signaling pathway (AID 1346877)
Study Conditions: TRHR-HEK293, TRH-induced calcium fluorescence, antagonist mode; series mostly up to 51.3 µM
The source made the active and inactive calls. Calls follow the shape of the dose curve; as a rule, active = well fitted inhibition curve with a large enough effect in the repeat runs (not every such curve was filed as active); inconclusive = weak or mixed curves; inactive = flat fitted curve, though single readings scatter.
In this exercise, the only acceptable responses are true = active, false = inactive

Lookup: Recorded call for `COP(=O)(OC)Oc1ccc([N+](=O)[O-])cc1` ?
Found: false

Lookup: Try the molecule `CCN(CC)CCc1c[nH]c2ccccc12`
Found: false

Lookup: Also check `CCN(CC)CCN1C(=O)CN=C(c2ccccc2F)c2cc(Cl)ccc21`
Found: false

Lookup: Please answer likewise for `N#CSCc1ccccc1`
Found: false

Lookup: Repeat for the following molecule: `COC(=O)N(OC)c1ccccc1COc1ccn(-c2ccc(Cl)cc2)n1`
Found: false

Lookup: And the next one, `CN1C(=O)[C@@H](NC(=O)c2cc3ccccc3[nH]2)N=C(c2ccccc2)c2ccccc21` ?
Found: false

Lookup: Also check COP(=S)(NC(C)C)Oc1ccc(C)cc1[N+](=O)[O-] (stereo not given)
Found: false

Lookup: And the next one, CCOP(=S)(NC(C)C)Oc1ccccc1C(=O)OC(C)C (stereo not given) ?
Found: false

Lookup: Then what about the molecule `CO/N=C(/C1=NOCCO1)c1ccccc1Oc1ncnc(Oc2ccccc2Cl)c1F` ?
Found: false

Lookup: Another molecule to check: `ClC1=C(Cl)[C@]2(Cl)[C@@H]3[C@H]4C[C@H]([C@@H]5O[C@H]45)[C@@H]3[C@@]1(Cl)C2(Cl)Cl`
Found: false

***
Lookup: // return assay outcome for O=C1C2(Cl)C3(Cl)C4(Cl)C(Cl)(Cl)C5(Cl)C3(Cl)C1(Cl)C5(Cl)C24Cl (stereo not given)
Found: true

Lookup: Another molecule to look at: `ClSC(Cl)(Cl)Cl`
Found: false

====

Protocol Notes: qHTS assay to identify small molecule HDAC inhibitors (AID 1259364);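 also: wild-type HCT-116 cells with endogenous class I/II HDAC activity; top concentration of the series differs between compounds; nearly all actives have a fitted effect of over 45% in size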
Study Conditions: HCT-116 HDAC-Glo I/II luminescence, 2 h; series mostly up to 92.4 µM
Inconclusive results are not listed. Activity calls are given as the source filed them. Calls follow the shape of the dose curve; as a rule, active = well fitted inhibition curve with a large enough effect in the repeat runs; inconclusive = weak or mixed curves; inactive = flat fitted curve, though single readings scatter.
Returns: one label drawn from active, inactive

Here's what some known entries look like.
Lookup: Which outcome was entered for the compound `C=CC(=O)[O][Sn]([CH2]CCC)([CH2]CCC)[CH2]CCC` in this test?
Found: inactive

Lookup: Moving on to the next compound: `Oc1cc(Cl)c(Cl)c(Cl)c1Cl`
Found: inactive

Lookup: Please answer likewise for `O=C(Cl)c1ccccc1F`
Found: inactive

Lookup: Follow-up entry: `c1ccc2nc(N3CCNCC3)ccc2c1`
Found: inactive

Lookup: What about this compound? `COC(=O)c1cc(Oc2ccc(Cl)cc2Cl)ccc1[N+](=O)[O-]`
Found: inactive

Continuing:
Lookup: Per the assay record, what outcome was assigned to `ClSC(Cl)(Cl)Cl` ?
Found: inactive

Lookup: Then this compound: `CN1C(=O)[C@@H](NC(=O)c2cc3ccccc3[nH]2)N=C(c2ccccc2)c2ccccc21`
Found: inactive

====

Assay System: Acetylcholinesterase (Homo sapiens)
Protocol Notes: Acetylcholinesterase (AChE) small molecule antagonists: fluorescence cell-based qHTS assay (AID 1347398); also: nearly all actives have a fitted effect of over 50% in size
Study Conditions: SH-SY5Y cells; AChE activity; series mostly up to 115 µM
Inconclusive results are not listed. Calls of active or inactive are those of the source. Calls come from the whole dose curve.
Your answer must be one of the following: active, inactive

Lookup: What did the test return for `CNC(=O)CSP(=O)(OC)OC` ?
Found: inactive

Lookup: Try the compound `Oc1cc(Cl)c(Cl)c(Cl)c1Cl`
Found: inactive

Lookup: Cool, now `CNC(=O)Oc1cc(C)cc(C(C)C)c1`
Found: active

Lookup: What do you have for `[O]=[Cr][O][Cr]=[O]` ?
Found: inactive

Lookup: Repeat with `c1ccc2c(c1)cc1ccc3cccc4ccc2c1c34`
Found: inactive

Others:
Lookup: For this compound, state the assay outcome: CC(Cc1ccc2c(c1)OCO2)NO (stereo not given)
Found: inactive

Lookup: Thanks! And `CCOP(=O)(OCC)Oc1cc(C)nc(C(C)C)n1` ?
Found: active

Lookup: Next compound up: `COC(=O)c1cc(Oc2ccc(Cl)cc2Cl)ccc1[N+](=O)[O-]`
Found: inactive

====

Assay System: Cytochrome P450 2D6 (Homo sapiens)
Protocol Notes: Cytochrome P450 Family 2 Subfamily D Member 6 (CYP2D6) small molecule antagonists: luciferase reporter qHTS assay (AID 1671196); also: nearly all actives have a fitted effect of over 50% in size
Study Conditions: P450-Glo CYP2D6 enzyme assay, luciferin luminescence, 1 h; series mostly up to 115 µM
From the text: U.S. Tox21 Program National Center for Advancing Translational Sciences [NCATS] U.S. Environmental Protection Agency [EPA] National Institutes of Environmental Health Sciences [NIEHS] National Toxicology Program [NTP] U.S. Food and Drug Administration [FDA] […] The luciferin products formed are detected with a luciferin detection reagent, and the amount of light produced is proportional to CYP activity. […]
Records with an inconclusive call do not appear. The source made the active and inactive calls. Calls follow the shape of the dose curve; as a rule, active = well fitted inhibition curve with a large enough effect in the repeat runs; inconclusive = weak or mixed curves; inactive = no such curve, though single readings can be large or run the other way.
Outcomes you can answer with include only these: active, inactive

Recorded results for 2 compounds are shown here.
Lookup: Record request — test call for `[O]=[Cr][O][Cr]=[O]`
Found: active

Lookup: Entry to check: `N#Cc1c2ccccc2cc2ccccc12`
Found: inactive

Read the next record carefully.
Lookup: Hey, what did the test say about `CN1CCc2cc(Cl)c(O)cc2[C@H]2c3ccccc3CC[C@@H]21` ?
Found: active

====

Protocol Notes: qHTS assay to identify small molecule agonists of H2AX (AID 1224845)
Study Conditions: CHO-K1 phospho-H2AX Ser139 HTRF, 3 h; series mostly up to 154 µM
Inconclusive results are not listed. Active and inactive are the calls of the source. Calls follow the shape of the dose curve; as a rule, active = well fitted activation curve with a large enough effect in the signal ratio in the repeat runs (not every such curve was filed as active); inconclusive = weak or mixed curves; inactive = flat fitted curve, though single readings scatter; the % refers to the signal ratio.
Hello, when you answer, please use one of the following outcomes: active, inactive

Field: example entries. Status: answers known.
Lookup: # fetch the recorded call for `CSSC` here
Found: inactive

Lookup: What do we get for `CO/N=C(/C1=NOCCO1)c1ccccc1Oc1ncnc(Oc2ccccc2Cl)c1F` ?
Found: inactive

Lookup: C#CCC1=C(C)C(OC(=O)C2C(C=C(C)C)C2(C)C)CC1=O (configuration not stated) , same question.
Found: inactive

Lookup: Thanks! And CCCCn1cc[n+](C)c1 (tested in a mixture with another compound) ?
Found: inactive

Lookup: Continue with FC(F)C(F)(F)OCC(Cn1cncn1)c1ccc(Cl)cc1Cl (configuration not stated)
Found: inactive

Lookup: Continue with CC(C)c1c(CN(C)C(C)Cc2ccccc2)n(C)n(-c2ccccc2)c1=O (configuration not stated)
Found: inactive

Lookup: Similarly, `CC(=O)[O-].CC(=O)[O-].O.O.[Zn+2]` ?
Found: inactive

Lookup: Can you handle `C#CCO` next?
Found: inactive

Lookup: Another compound to check: `COC(=O)c1cc(Oc2ccc(Cl)cc2Cl)ccc1[N+](=O)[O-]`
Found: inactive

Lookup: Similarly, CC(C)C(Br)C(=O)NC(N)=O (configuration not stated) ?
Found: inactive

Others:
Lookup: Please indicate how the test categorized CCC(OC(C)=O)C(CC(C)NC)(c1ccccc1)c1ccccc1 (configuration not stated) .
Found: inactive

Lookup: Could you do the same for `[Cl-].[Cl-].[Sn+2]` , please?
Found: inactive

Lookup: Similarly, `[O]=[Cr](=[O])([OH])[O][Cr](=[O])(=[O])[OH]` ?
Found: active

Lookup: Next compound up: CCC(C)Br (configuration not stated)
Found: inactive

Lookup: Query CN1CCc2cc3c(cc2C1O)OCO3 (configuration not stated) next
Found: inactive

Lookup: What about `COc1ccc2[nH]cc(CCN(C(C)C)C(C)C)c2c1` ?
Found: inactive

Lookup: Try this compound next: `[O]=[Cr][O][Cr]=[O]`
Found: inactive
